Hi there, I'd appreciate the recorded inhibition of SARS-CoV-2 cytopathic effect for every entry that follows.
tested on: Vero E6 infected with SARS-CoV-2; assay: inhibition of SARS-CoV-2 cytopathic effect; higher = more antiviral protection, active = above 15; details: 833.33 nM; 48 h
The answer is to be given in %; state only the numeric part.

Bench note: what inhibition of SARS-CoV-2 cytopathic effect did COc1[nH]c2ccc(F)cc2c1C(=O)OCC1CCN(CCNS(C)(=O)=O)CC1 show? 0.39

Bench note: what inhibition of SARS-CoV-2 cytopathic effect did Nc1nccc(-c2c(-c3ccc(F)cc3)ncn2C2CCCCC2)n1 show? -0.2

Bench note: what inhibition of SARS-CoV-2 cytopathic effect did CCCCn1ccc(N2CCC(c3ccccc3)CC2)c(Cl)c1=O show? 1.64

Bench note: what inhibition of SARS-CoV-2 cytopathic effect did OB1OCc2cc(Cl)ccc21 show? 2.33

Bench note: what inhibition of SARS-CoV-2 cytopathic effect did COCCN1CCC(C(=O)NO)(S(=O)(=O)c2ccc(Oc3ccc(OC(F)(F)F)cc3)cc2)CC1 show? 3.32

Bench note: what inhibition of SARS-CoV-2 cytopathic effect did CC(C)(C)c1cc(/C=C(\C#N)C(N)=S)cc(C(C)(C)C)c1O [tyrphostin-AG-879] show? 5.42

Bench note: what inhibition of SARS-CoV-2 cytopathic effect did Cc1cc(N)c2ccccc2[n+]1CCCCCCCCCC[n+]1c(C)cc(N)c2ccccc21 [dequalinium] show? -2.88

Bench note: what inhibition of SARS-CoV-2 cytopathic effect did N[C@@H](C(=O)O)c1ccc(C(=O)O)c(C(=O)O)c1 (racemic) show? -2.93

Bench note: what inhibition of SARS-CoV-2 cytopathic effect did CCc1cc2c(cc1CC)CC(NC[C@H](O)c1ccc(O)c3[nH]c(=O)ccc13)C2 [indacaterol] show? -1.99

Bench note: what inhibition of SARS-CoV-2 cytopathic effect did O=C1OCCN1/N=C/c1ccc([N+](=O)[O-])o1 [furazolidone] show? 1.08

Bench note: what inhibition of SARS-CoV-2 cytopathic effect did COc1cccc(CCc2ccccc2OCC(CN(C)C)OC(=O)CCC(=O)O)c1 (stereo not drawn) [sarpogrelate] show? -0.22

Bench note: what inhibition of SARS-CoV-2 cytopathic effect did O=Nc1c(-c2c(O)[nH]c3ccccc23)[nH]c2ccccc12 [indirubin-3-monoxime] show? 5.66

Bench note: what inhibition of SARS-CoV-2 cytopathic effect did N[C@H](Cc1ccccc1)C(=O)O [D-phenylalanine] show? 0.27

Bench note: what inhibition of SARS-CoV-2 cytopathic effect did CC(O)CC(=O)O (stereo not drawn) [beta-hydroxybutyrate] show? -2.16

Bench note: what inhibition of SARS-CoV-2 cytopathic effect did OCCN(CCO)c1nc(N2CCCCC2)c2nc(N(CCO)CCO)nc(N3CCCCC3)c2n1 [dipyridamole] show? 0.2

Bench note: what inhibition of SARS-CoV-2 cytopathic effect did Cc1nc2cnc3ccc(C#Cc4cccnc4)cc3c2n1-c1ccc(C(C)(C)C#N)cc1 show? -1.07

Bench note: what inhibition of SARS-CoV-2 cytopathic effect did NCCCCCC(=O)O [aminocaproic-acid] show? 1.01

Bench note: what inhibition of SARS-CoV-2 cytopathic effect did CCCCN(Cc1ccc(C(=O)NO)cc1)C(=O)Nc1ccccc1 [nexturastat-A] show? -3.85

Bench note: what inhibition of SARS-CoV-2 cytopathic effect did O=C(O)C1=CCCN(CCOC(c2ccc(C(F)(F)F)cc2)c2ccc(C(F)(F)F)cc2)C1 show? 1.77

Bench note: what inhibition of SARS-CoV-2 cytopathic effect did CNC1CCCN(c2c(F)cc3c(=O)c(C(=O)O)cn(C4CC4)c3c2OC)C1 (stereo not drawn) [balofloxacin] show? 1.72

Bench note: what inhibition of SARS-CoV-2 cytopathic effect did CC(ONC(=O)c1cc(C(F)(F)F)cc(C(F)(F)F)c1)C(=O)Nc1ccc(Cl)cc1 (stereo not drawn) show? -2.31

Bench note: what inhibition of SARS-CoV-2 cytopathic effect did CCN(CC)Cc1ccc(C(=O)N(CCc2ccccc2OC)[C@@H]2CCNC2)cc1 show? -1.07

Bench note: what inhibition of SARS-CoV-2 cytopathic effect did COc1ccc(CCN(C)CCc2ccc(OC)c(OC)c2)cc1OC show? 4.35

Bench note: what inhibition of SARS-CoV-2 cytopathic effect did NS(=O)(=O)c1cc2c(cc1Cl)N=C(CSCc1ccccc1)NS2(=O)=O [benzthiazide] show? 2.56

Bench note: what inhibition of SARS-CoV-2 cytopathic effect did NC(=O)c1ccccc1O [salicylamide] show? 3.83

Bench note: what inhibition of SARS-CoV-2 cytopathic effect did CCCCCCCCNC(C)C(O)c1ccc(SC(C)C)cc1 (stereo not drawn) [suloctidil] show? 0.21

Bench note: what inhibition of SARS-CoV-2 cytopathic effect did C[C@@H]1CC[C@H]2C(C)(C)[C@H]3C[C@@]12CC[C@@]3(C)O [cedrol] show? -1.1

Bench note: what inhibition of SARS-CoV-2 cytopathic effect did COc1ccc2nc3cc(Cl)ccc3c(Nc3cc(CN4CCCC4)c(O)c(CN4CCCC4)c3)c2n1 [pyronaridine] show? 3.79

Bench note: what inhibition of SARS-CoV-2 cytopathic effect did NC(=O)c1cccc(-c2cccc(OC(=O)NC3CCCCC3)c2)c1 show? 1.41

Bench note: what inhibition of SARS-CoV-2 cytopathic effect did Cc1cc2c(OCC(CNC(C)(C)C)OC(=O)c3ccccc3)cccc2[nH]1 (stereo not drawn) [bopindolol] show? 0.54

Bench note: what inhibition of SARS-CoV-2 cytopathic effect did C1Cc2[nH]nc(-c3nn[nH]n3)c2C1 show? -3.19

Bench note: what inhibition of SARS-CoV-2 cytopathic effect did CCCNCCc1ccc(NS(=O)(=O)c2ccc(OC(F)(F)F)cc2)cc1 show? 1.93

Bench note: what inhibition of SARS-CoV-2 cytopathic effect did CN1CCN(c2cc3c(cc2F)c(=O)c(C(=O)O)cn3-c2ccc(F)cc2)CC1 [difloxacin] show? 0.94

Bench note: what inhibition of SARS-CoV-2 cytopathic effect did COc1cc(C(=O)OCCCN2CCCN(CCCOC(=O)c3cc(OC)c(OC)c(OC)c3)CC2)cc(OC)c1OC [dilazep] show? -1.09

Bench note: what inhibition of SARS-CoV-2 cytopathic effect did O=c1c(O)c(-c2ccc(O)c(O)c2)oc2cc(O)ccc12 [fisetin] show? -0.95

Bench note: what inhibition of SARS-CoV-2 cytopathic effect did CCC(=O)O[C@]1(C(=O)CCl)[C@@H](C)C[C@H]2[C@@H]3CCC4=CC(=O)C=C[C@]4(C)[C@@]3(F)[C@@H](O)C[C@@]21C [clobetasol-propionate] show? 0.48

Bench note: what inhibition of SARS-CoV-2 cytopathic effect did CN(C)CCOC(c1ccc(Cl)cc1)c1ccccn1 (stereo not drawn) [carbinoxamine] show? 1.37

Bench note: what inhibition of SARS-CoV-2 cytopathic effect did CCCCCCCCCCCCCCCC[N+](C)(C)Cc1ccccc1 [benzyldimethylhexadecylammonium] show? -0.97
